Molecular target: human GCG receptor (human, UniProt P47871 26-477)
Sequence (P47871 26-477): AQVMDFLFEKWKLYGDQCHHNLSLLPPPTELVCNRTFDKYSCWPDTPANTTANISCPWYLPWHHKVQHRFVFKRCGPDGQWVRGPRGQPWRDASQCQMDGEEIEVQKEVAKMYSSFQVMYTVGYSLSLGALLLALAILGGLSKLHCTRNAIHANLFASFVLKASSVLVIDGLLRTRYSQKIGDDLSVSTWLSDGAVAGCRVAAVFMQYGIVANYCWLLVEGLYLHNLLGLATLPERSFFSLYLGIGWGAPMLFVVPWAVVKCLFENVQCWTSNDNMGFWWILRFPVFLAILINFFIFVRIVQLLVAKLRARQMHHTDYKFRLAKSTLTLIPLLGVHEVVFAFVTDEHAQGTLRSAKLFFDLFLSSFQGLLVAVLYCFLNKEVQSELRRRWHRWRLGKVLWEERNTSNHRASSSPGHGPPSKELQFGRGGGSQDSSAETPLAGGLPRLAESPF
Experiment: cell-based or functional assay
Positions of bridges follow the written chain, without caps; N, C: chain ends. Non-standard residues stand in square brackets, D forms with d. No end group written: not given here. *: point of attachment. Acetyl(2-(4-imidazolyl)) = O=C(Cc1c[nH]cn1)*; Aib = CC(C)(N)C(=O)O
In vitro Activity Compared to Native Peptide (%) vs. Glucagon overview
Number in %, nothing else.

- BINDER: "Y[Aib]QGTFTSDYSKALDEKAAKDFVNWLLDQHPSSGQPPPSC (bridge 16-20) [triple agonist of SEQ ID NO: 102]"
  MEASUREMENT UNIT: "%"
  VAL: 29.5

Problem: Which value of In vitro Activity Compared to Native Peptide (%) vs. Glucagon has been reported for Y[Aib]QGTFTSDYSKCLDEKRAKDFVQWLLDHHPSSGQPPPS (bridge 16-20) [triple agonist of SEQ ID NO: 70] in the records?
Result: 71.3

Problem: Which value of In vitro Activity Compared to Native Peptide (%) vs. Glucagon has been reported for [Acetyl(2-(4-imidazolyl))][Aib]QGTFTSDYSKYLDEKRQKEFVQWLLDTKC (bridge 16-20) [triple agonist of SEQ ID NO: 89] in the records?
Result: 0.7
